Assay: Pharmacokinetics in Wistar rats, IV/IP/PO
Assay type: in vivo
Settings: Wistar, rat, plasma, ip, 5 mg/kg
Property measured: half-life (h)
Express the result in h but write the number alone.

For the compound shown here, Cc1ccc2c(c1)c1c(n2CCc2ccccc2)CCN(C)C1 [AVN-101] , give the reported half-life. 2.94

====

Assay: Metabolism in human microsomes
Assay type: in vitro ADME
Conditions: human, liver microsomes
Property measured: microsomal CLint at 1 µM
Number plus unit, in that order.

For the molecule shown here, Cc1ccc2c(c1)c1c(n2CCc2ccccc2)CCN(C)C1 , give the reported microsomal CLint at 1 µM. 335 µL/min/mg

====

Assay: Pharmacokinetics in mice, IP
Format: in vivo
Conditions: mouse, blood, 0.05 mg/kg
Property measured: Cmax (ng/mL)
Express the result in ng/mL but write the number alone.

For the molecule shown here, Cc1ccc2c(c1)c1c(n2CCc2ccccc2)CCN(C)C1 , give the reported Cmax. 1.9
